// data source = patent US9028845B2

Test system: human PBMCs
procedure_text: Human PBMC cytokine response assay (IFN-γ and IFN-α in cell-free medium by ELISA), with or without cPLGA
Assay type: cell-based
conditions_used: Example 58; 0.8 ug/ml; donor 1
Strand notation (5' to 3'): a small letter for the sugar, then the base; units joined by * are phosphorothioate-linked, units joined directly phosphodiester-linked; [ ] holds rarer units or linkages, { } end groups; capitals alone tell only the bases. d = 2'-deoxy (DNA)
Each record here notes measured IFN-α.
State the answer as a number, implicitly in pg/mL.

Measured IFN-α, 5′-TGACTGTGAACCTTAGAGATGA-3′ (SEQ ID NO: 3) (dT*dG*dA*dC*dT*dG*dT*dG*dA*dA*dC*dC*dT*dT*dA*dG*dA*dG*dA*dT*dG*dA) [Compound P-7, negative control, reference compound] : 52

----------
System: human PBMCs
procedure_text: Human PBMC cytokine response assay (IFN-γ and IFN-α in cell-free medium by ELISA), with or without cPLGA;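 as to IFN-α (pg/ml) mean: 20 µg/mL compound for 24 hours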
Assay type: cell-based
conditions_used: mean of Donors 1-2; 20 μg/ml, 24 h
Strand notation (5' to 3'): a small letter for the sugar, then the base; units joined by * are phosphorothioate-linked, units joined directly phosphodiester-linked; [ ] holds rarer units or linkages, { } end groups; capitals alone tell only the bases. d = 2'-deoxy (DNA)
readout_label: IFN-α (pg/ml) mean

5′-TCGTCGA-3′ [Compound P-1, reference compound]	0 pg/mL
5′-TCGTCG-3′- C3-5′-ACGTTCG-3′-C3-5′-AGATGAT-3′ [Compound C-11]	59 pg/mL
5′-TCGTCGA-3′- C3-5′-ACGTTCG-3′-C3-5′-AGATGAT-3′ [Compound C-9]	71 pg/mL
5′-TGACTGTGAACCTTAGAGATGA-3′ (SEQ ID NO: 3) (dT*dG*dA*dC*dT*dG*dT*dG*dA*dA*dC*dC*dT*dT*dA*dG*dA*dG*dA*dT*dG*dA) [Compound P-7, negative control, reference compound]	0 pg/mL
5′-TCGTCG-3′-HEG-5′-ACGTTCG-3′-HEG-5′-AGATGAT-3′ [Compound C-10]	856 pg/mL

Attention now shifts to the item below.
Looking up 5′-TCGTCGA-3′-HEG-5′-ACGTTCG-3′-HEG-5′-AGATGAT-3′ [Compound C-8] , I see its IFN-α (pg/ml) mean listed as 827 pg/mL

----------
Tested on: human PBMCs
procedure_text: Human PBMC cytokine response assay (IFN-γ and IFN-α in cell-free medium by ELISA), with or without cPLGA
Format: cell-based
conditions_used: Example 59; 0.8 ug/ml; donor 177
Strand notation (5' to 3'): a small letter for the sugar, then the base; units joined by * are phosphorothioate-linked, units joined directly phosphodiester-linked; [ ] holds rarer units or linkages, { } end groups; capitals alone tell only the bases. d = 2'-deoxy (DNA)
readout_label: IFN-α (pg/mL)
Kindly provide the numeric value in pg/mL only, without the unit symbol.

Some substances with known IFN-α results, for comparison:
(5′-TCGACGT-HEG)2-glycerol-HEG-5′-TTGGCCAAGCTTGGCCAA (SEQ ID NO: 116) (DNA, all phosphorothioate, methylation of C not given here; Two heptamer DNA arms joined by HEG spacers and glycerol branching to the chain) [Compound C-178]	1150
(5′-TAGTCAT-3′-HEG)2-glycerol-HEG-5′-AACCTTC-3′ [Compound M-3, reference compound]	102
(5′-TCGACGT-3′-HEG)2-glycerol-HEG-5′-TCGACGT-3′ [Compound C-101]	102
(5′-TCGACGT-HEG)2-glycerol-HEG-5′-ACTTAGAGGTTCAGTAGG-3′ (SEQ ID NO: 157) (DNA, all phosphorothioate, methylation of C not given here; Two heptamer DNA arms joined by HEG spacers and glycerol branching to the chain) [Compound C-202]	102
(5′-TCGACGT-HEG)2-glycerol-HEG-5′-CCTACTGAACCTCTAAGT-3′ (SEQ ID NO: 158) (DNA, all phosphorothioate, methylation of C not given here; Two heptamer DNA arms joined by HEG spacers and glycerol branching to the chain) [Compound C-203]	102

Then this substance:
response.value for 5′-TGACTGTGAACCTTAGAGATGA-3′ (SEQ ID NO: 3) (dT*dG*dA*dC*dT*dG*dT*dG*dA*dA*dC*dC*dT*dT*dA*dG*dA*dG*dA*dT*dG*dA) [Compound P-7, negative control, reference compound] (field: IFN-α) = 102

----------
Quick reference: IFN-α of the listed items.
Tested on: human PBMCs
procedure_text: Human PBMC cytokine response assay (IFN-γ and IFN-α in cell-free medium by ELISA), with or without cPLGA
Type: cell-based
conditions_used: Table 24; donor 28237
Strand notation (5' to 3'): a small letter for the sugar, then the base; units joined by * are phosphorothioate-linked, units joined directly phosphodiester-linked; [ ] holds rarer units or linkages, { } end groups; capitals alone tell only the bases. d = 2'-deoxy (DNA)
Reply with just the number (in pg/mL).

Solved entries (count: 3):
5′-TCCA-3′-C3-5′-TGACGTT-3′-C3-5′-CCTGATGCT-3′ [Compound C-88]	111
5′-TCGTCGA-3′-HEG-5′-TCGTCGA-3′-HEG-5′-TCGTCGA-3′ [Compound C-21]	678
(5′-TCGTCGA-3′-HEG)2-glycerol-HEG-5′-AACGTTC-3′-HEG-5′-TCGA-3′ [Compound C-97]	16

Looking up 5′-TCGACGT-3′-HEG-5′-TCGACGT-3′-HEG-5′-TCGACGT-3′-HEG-5′-TCGACGT-3′ [Compound C-71] , I see its IFN-α listed as 1665

5′-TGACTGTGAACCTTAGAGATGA-3′ (SEQ ID NO: 3) (dT*dG*dA*dC*dT*dG*dT*dG*dA*dA*dC*dC*dT*dT*dA*dG*dA*dG*dA*dT*dG*dA) [Compound P-7, negative control, reference compound] yielded IFN-α of 16

What the record says about 5′-TCGTCGA-3′-C3-5′-TCGTCGA-3′-C3-5′-TCGTCGA-3′ all phosphorothioate linkages [Compound C-33] : IFN-α is 91

----------
Test system: human PBMCs
procedure_text: Human PBMC cytokine response assay (IFN-γ and IFN-α in cell-free medium by ELISA), with or without cPLGA
Format: cell-based
conditions_used: Table 9; donor 28090
readout_label: IFN-α
The reply should read as a number followed by its unit.

These recorded examples may help you get a feel for the data.
5′-TCGTCG-3′-HEG-5′-ACGTTCG-3′-HEG-5′-AGATGAT-3′ [Compound C-10]	61 pg/mL
5′-TCGTCG-3′-HEG-5′-TCGTCG-3′-HEG-5′-TCGTCG-3′ [Compound C-22]	46 pg/mL
HEG-5′-TCGTCG-3′-HEG-5′-ACGTTCG-3′-HEG-5′-AGATGAT-3′-TEG (phosphodiester linkages) [Compound C-31]	26 pg/mL
5′-TCGTCG-3′-HEG-5′-ACGTTCG-3′-HEG-5′-AGATGAT-3′-TEG [Compound C-29]	92 pg/mL
(5′-TCGTCGA-3′)2-glycerol-5′-TCGTCGA-3′ [Compound C-28]	64 pg/mL
(5′-TCGTCGA-3′-HEG)2-glycerol-HEG-5′-TCGTCGA-3′ (phosphodiester) [Compound C-93]	30 pg/mL
5′-TCGTCGA-3′- C3-5′-ACGTTCG-3′-C3-5′-AGATGAT-3′ [Compound C-9]	67 pg/mL

Next item in the queue.
// assay human PBMCs, entry 5′-TCGTCGA-3′-HEG-5′-ACGTTCG-3′-HEG-5′-AGATGAT-3′ [Compound C-8] , IFN-α value = 124 pg/mL

----------
System: human PBMCs
procedure_text: Human PBMC cytokine response assay (IFN-γ and IFN-α in cell-free medium by ELISA), with or without cPLGA
Assay type: cell-based
conditions_used: donor 28058; Table 16
Strand notation (5' to 3'): a small letter for the sugar, then the base; units joined by * are phosphorothioate-linked, units joined directly phosphodiester-linked; [ ] holds rarer units or linkages, { } end groups; capitals alone tell only the bases. d = 2'-deoxy (DNA)
In this section, each of the substances is paired with its reported IFN-γ.
Express it in pg/mL; write the number only.

Some solved cases for reference:
5′-TCGTCG-3′-(HME)15-5′-T-3′ [Compound C-14]	1
5′-TCGTCG-3′-(TEG)8-5′-T-3′ [Compound C-15]	3
5′-TCGTCG-3′-(C3)15-5′-T-3′ [Compound C-13]	3
5′-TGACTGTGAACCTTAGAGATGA-3′ (SEQ ID NO: 3) (dT*dG*dA*dC*dT*dG*dT*dG*dA*dA*dC*dC*dT*dT*dA*dG*dA*dG*dA*dT*dG*dA) [Compound P-7, negative control, reference compound]	2

Could you now consider this next substance?
Lab book: IFN-γ of 5′-TCGTCG-3′-(HEG)4-5′-T-3′ [Compound C-16] noted as 2
